These entries and their values trace back to the Immune Epitope Database (IEDB).

system tested: HLA-B*08:01
run description: IEDB peptide-MHC binding, purified MHC/direct/fluorescence; filed as Kd, often an IC50 or EC50 that approximates it; bounds were set here for any values at or beyond the usual limits of such assays
measurement conditions: source organism: Burkholderia mallei ATCC 23344
pKd: −log10 of the molar value.
endpoint name: pKd

Query string: Reported pKd for HLA-B*08:01, given `RRSLLAHVR` ?
Result string: ≤ 4.70

---

system tested: HLA-B*39:01
run description: IEDB peptide-MHC binding, purified MHC/competitive/fluorescence; filed as Kd, often an IC50 or EC50 that approximates it; bounds were set here for any values at or beyond the usual limits of such assays
measurement conditions: source organism: Escherichia coli
endpoint name: pKd
# pKd is unitless: minus log10 of the molar concentration; print number only

Query string: Form field: reported pKd of `ENARLRALL`
Result string: 6.08

---

system tested: HLA-B*58:01
run description: IEDB peptide-MHC binding, purified MHC/direct/fluorescence; filed as Kd, often an IC50 or EC50 that approximates it; bounds were set here for any values at or beyond the usual limits of such assays
measurement conditions: source organism: Influenza A virus (A/Hong Kong/516/97(H5N1))
endpoint name: Kd

Query string: Form field: reported Kd of `SYINRTGTF`
Result string: ≥ 20 µM

---

system tested: HLA-A*23:01
run description: IEDB peptide-MHC binding, purified MHC/direct/fluorescence; filed as Kd, often an IC50 or EC50 that approximates it; bounds were set here for any values at or beyond the usual limits of such assays
measurement conditions: source organism: Orthohantavirus sangassouense
endpoint name: Kd

Query string: Form field: reported Kd of `MRNTIMASK`
Result string: ≥ 20 µM

---

system tested: HLA-B*15:01
run description: IEDB peptide-MHC binding, purified MHC/competitive/radioactivity; filed as Kd, often an IC50 or EC50 that approximates it; bounds were set here for any values at or beyond the usual limits of such assays
measurement conditions: source organism: Vaccinia virus WR
Item-by-item account of Kd

Query string: Reported Kd for HLA-B*15:01, given `MLNTYGEGF` ?
Result string: 2.25 nM

Query string: Reported Kd for HLA-B*15:01, given `VMVTSKPLF` ?
Result string: 15.9 nM

---

system tested: HLA-A*02:19
run description: IEDB peptide-MHC binding, purified MHC/direct/fluorescence; filed as Kd, often an IC50 or EC50 that approximates it; bounds were set here for any values at or beyond the usual limits of such assays
measurement conditions: source organism: Orthohantavirus tulaense
endpoint name: Kd (nM)
Give the quantity in nM, number only.

Query string: Form field: reported Kd of `KLYEGDLRV`
Result string: 8

---

system tested: HLA-B*58:01
run description: IEDB peptide-MHC binding, purified MHC/competitive/fluorescence; filed as Kd, often an IC50 or EC50 that approximates it; bounds were set here for any values at or beyond the usual limits of such assays
measurement conditions: source organism: Escherichia coli str. K-12 substr. MG1655
endpoint name: pKd
# pKd is unitless: minus log10 of the molar concentration; print number only

Query string: Reported pKd for HLA-B*58:01, given `KVGITGFCY` ?
Result string: 6.38

---

system tested: HLA-B*48:01
run description: IEDB peptide-MHC binding, purified MHC/competitive/fluorescence; filed as Kd, often an IC50 or EC50 that approximates it; bounds were set here for any values at or beyond the usual limits of such assays
measurement conditions: source organism: Mycobacterium tuberculosis H37Ra
pKd: −log10 of the molar value.
endpoint name: pKd

Query string: Form field: reported pKd of `AVYLLDGLR`
Result string: ≤ 4.70

---

system tested: HLA-A*02:02
run description: IEDB peptide-MHC binding, purified MHC/competitive/radioactivity; filed as Kd, often an IC50 or EC50 that approximates it; bounds were set here for any values at or beyond the usual limits of such assays
measurement conditions: source organism: Mammarenavirus brazilense
Item-by-item account of Kd
Give the quantity in nM, number only.

{"sequence code": "LLPDALLFTL", "system tested": "HLA-A*02:02", "Kd [nM]": 4.72}

Now for another entry.
Query string: Form field: reported Kd of `MSPALFFTFL`
Result string: 546

---

system tested: HLA-A*11:01
run description: IEDB peptide-MHC binding, purified MHC/competitive/radioactivity; filed as Kd, often an IC50 or EC50 that approximates it; bounds were set here for any values at or beyond the usual limits of such assays
measurement conditions: source organism: Mammarenavirus brazilense
endpoint name: Kd (µM)
Give the quantity in µM, number only.

Query string: Form field: reported Kd of `KAGQNIRLSH`
Result string: 12.8

---

system tested: HLA-A*03:01
run description: IEDB peptide-MHC binding, purified MHC/competitive/radioactivity; filed as Kd, often an IC50 or EC50 that approximates it; bounds were set here for any values at or beyond the usual limits of such assays
measurement conditions: source organism: Lassa virus Josiah
pKd: −log10 of the molar value.
endpoint name: pKd

Query string: Form field: reported pKd of `DQYKDLCHMH`
Result string: ≤ 4.15

---

Item-by-item account of pKd
system tested: HLA-A*01:01
run description: IEDB peptide-MHC binding, purified MHC/direct/fluorescence; filed as Kd, often an IC50 or EC50 that approximates it; bounds were set here for any values at or beyond the usual limits of such assays
measurement conditions: source organism: Escherichia coli O157:H7
pKd: −log10 of the molar value.

In the examples that follow, each entry is paired with its recorded pKd.
{"sequence code": "REWGWRIPF", "endpoint name": "pKd", "value reported": "≤ 4.70"}
{"sequence code": "IRNPPMVVF", "endpoint name": "pKd", "value reported": "≤ 4.70"}

Now for another entry.
Query string: Reported pKd for HLA-A*01:01, given `GMAEDLQSL` ?
Result string: ≤ 4.70

---

system tested: HLA-A*24:02
run description: IEDB peptide-MHC binding, purified MHC/competitive/fluorescence; filed as Kd, often an IC50 or EC50 that approximates it; bounds were set here for any values at or beyond the usual limits of such assays
measurement conditions: source organism: Shigella flexneri 5 str. 8401
endpoint name: pKd
# pKd is unitless: minus log10 of the molar concentration; print number only

Query string: Form field: reported pKd of `VSITNPFLF`
Result string: 8.24

---

system tested: HLA-A*26:02
run description: IEDB peptide-MHC binding, purified MHC/direct/fluorescence; filed as Kd, often an IC50 or EC50 that approximates it; bounds were set here for any values at or beyond the usual limits of such assays
measurement conditions: source organism: West Nile virus strain PTRoxo
endpoint name: Kd (nM)
Give the quantity in nM, number only.

Query string: Form field: reported Kd of `STKAACPTM`
Result string: 1040

---

system tested: HLA-B*15:17
run description: IEDB peptide-MHC binding, purified MHC/competitive/fluorescence; filed as Kd, often an IC50 or EC50 that approximates it; bounds were set here for any values at or beyond the usual limits of such assays
measurement conditions: source organism: Influenza A virus (A/Fort Monmouth/1/1947-mouse adapted(H1N1))
endpoint name: Kd (nM)
Give the quantity in nM, number only.

Query string: Form field: reported Kd of `SYINRTGTF`
Result string: 477

---

system tested: HLA-A*01:01
run description: IEDB peptide-MHC binding, purified MHC/direct/fluorescence; filed as Kd, often an IC50 or EC50 that approximates it; bounds were set here for any values at or beyond the usual limits of such assays
measurement conditions: source organism: Influenza A virus (A/Switzerland/8808/2002(H1N1))
endpoint name: Kd

Query string: Form field: reported Kd of `VPAQNAIST`
Result string: ≥ 20 µM

---

system tested: HLA-B*15:17
run description: IEDB peptide-MHC binding, purified MHC/competitive/fluorescence; filed as Kd, often an IC50 or EC50 that approximates it; bounds were set here for any values at or beyond the usual limits of such assays
measurement conditions: source organism: Yersinia pestis Nepal516
pKd: −log10 of the molar value.
endpoint name: pKd

Query string: Form field: reported pKd of `YADGGQWYN`
Result string: ≤ 4.70

---

system tested: HLA-B*40:01
run description: IEDB peptide-MHC binding, purified MHC/direct/fluorescence; filed as Kd, often an IC50 or EC50 that approximates it; bounds were set here for any values at or beyond the usual limits of such assays
measurement conditions: source organism: Giardia intestinalis
endpoint name: Kd

Query string: Form field: reported Kd of `RTMPLSRFT`
Result string: ≥ 20 µM

---

system tested: HLA-A*02:01
run description: IEDB peptide-MHC binding, purified MHC/competitive/radioactivity; filed as Kd, often an IC50 or EC50 that approximates it; bounds were set here for any values at or beyond the usual limits of such assays
measurement conditions: source organism: Hepatitis C virus (isolate BK)
endpoint name: pKd
# pKd is unitless: minus log10 of the molar concentration; print number only

Query string: Form field: reported pKd of `VLTDFKTWL`
Result string: 8.39

---

system tested: HLA-B*07:02
run description: IEDB peptide-MHC binding, purified MHC/direct/fluorescence; filed as Kd, often an IC50 or EC50 that approximates it; bounds were set here for any values at or beyond the usual limits of such assays
measurement conditions: source organism: Tanganya virus
endpoint name: Kd (nM)
Give the quantity in nM, number only.

Query string: Reported Kd for HLA-B*07:02, given `SPGDNSAKF` ?
Result string: 1960
